Molecular target: T1, CD25 (Homo sapiens, UniProt P01589)
T1 sequence (P01589 22-272): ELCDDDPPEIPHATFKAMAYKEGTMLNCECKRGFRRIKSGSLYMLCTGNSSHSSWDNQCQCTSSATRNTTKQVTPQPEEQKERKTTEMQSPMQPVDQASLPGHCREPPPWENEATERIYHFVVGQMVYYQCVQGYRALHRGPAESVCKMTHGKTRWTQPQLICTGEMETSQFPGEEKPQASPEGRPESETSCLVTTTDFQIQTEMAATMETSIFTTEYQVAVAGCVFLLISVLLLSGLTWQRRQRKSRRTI
Assay: Binding of human IgG1 format antibodies to CD25 by Octet
Conditions: read-out: Biosensor Measured CD25 Affinity
Observable: Kd (µM)
Just the number please, in µM, no unit attached.

Molecule	Kd / µM
YU392-B11: anti-CD25 scFv clone, SEQ ID NO: 750 (protein, listed as Mus musculus) scFv: PGATVKISCKVSGYTFTDYYMHWVQQAPGKGLEWMGLVDPEDGETIYAEKFQGRVTITADTSTDTAYMELSSLRSEDTAVYYCAVEGGRAPGTYYYDSSGLAYWGQGTLVTVSSCAVEGGRAPGTYYYDSSGLAYWQAGLTQPPSASGTPGQRVTISCSGSSSNIGSNYVYWYQQLPGTAPKLLIYSNNQRPSGVPDRFSGSKSGTSASLAISGLRSEDEADYYCATWDDSLSGVVFGGGTKLTVLCATWDDSLSGVVF	0.0656

Now look at this entry.
Request: Given the molecule YU397-D01: anti-CD25 scFv clone, SEQ ID NO: 817 (protein, listed as Mus musculus) scFv: PSGTLSLTCAVSGGSISSSNWWSWVRQPPGKGLEWIGEIYHSGSTNYNPSLKSRVTISVDKSKNQFSLKLSSVTAADTAVYYCARARGGRYFDYWGQGTLVTVSSCARARGGRYFDYWDIVLTQSPSFLSASVGDRVTITCRASQGISTYLAWYQQKPGTAPKVLMYAASTLHSGVPSRFSGSGSGTEFTLTISSLQPEDFAIYYCQQLNGYPTTFGGGTRVEIKCQQLNGYPTTF , what is its reported Kd?
Response: 0.00386
